# TARGET_OF_ASSAY: Trypanothione reductase (Trypanosoma brucei brucei) (UniProt P39051)
# Sequence (P39051 whole entry, looked up): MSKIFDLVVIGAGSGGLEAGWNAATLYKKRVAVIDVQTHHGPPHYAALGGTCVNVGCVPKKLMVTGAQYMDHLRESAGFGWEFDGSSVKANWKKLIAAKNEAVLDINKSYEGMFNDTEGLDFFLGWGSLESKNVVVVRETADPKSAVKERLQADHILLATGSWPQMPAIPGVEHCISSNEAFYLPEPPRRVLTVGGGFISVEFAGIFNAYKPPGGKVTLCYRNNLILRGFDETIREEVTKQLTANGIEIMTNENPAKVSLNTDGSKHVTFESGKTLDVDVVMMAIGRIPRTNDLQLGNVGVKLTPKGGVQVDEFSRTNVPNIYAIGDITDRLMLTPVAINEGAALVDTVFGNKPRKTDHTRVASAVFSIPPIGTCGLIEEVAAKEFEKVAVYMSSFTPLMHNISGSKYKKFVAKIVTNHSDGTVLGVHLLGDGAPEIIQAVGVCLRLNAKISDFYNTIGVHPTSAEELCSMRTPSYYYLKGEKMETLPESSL
# PROTOCOL_TEXT: Reversible inhibition of recombinant Trypanosoma brucei trypanothione reductase
The source made the active and inactive calls. The calls are words filed in the database; no cut-off is given here.
EXPERIMENTAL_READOUT: inhibition

Consider the following illustrative entries.
What does the record list as inhibition for N#CCC(=O)N1c2ccccc2Oc2ccccc21 ?
inactive

Can you check O=C(CCCCl)N1c2ccccc2Oc2ccc(Cl)cc21 next?
inactive

Can you check O=C(C(Cl)CCl)N1c2ccccc2Oc2ccccc21 (stereo not given) next?
inactive

Can you check ClCCN1c2ccccc2Oc2ccc(Cl)cc21 next?
inactive

Can you check Clc1ccc2c(c1)Nc1ccccc1O2 next?
inactive

Switching to the query record.
What does the record list as inhibition for O=C(C(Cl)Cl)N1c2ccccc2Oc2ccccc21 ?
inactive

---

# Test system: Leishmania major
# PROTOCOL_TEXT: Antileishmanial activity against promastigote stage of Leishmania major assessed as inhibition of parasite proliferation after 48 hrs by Alamar Blue assay
# Type: functional, organism-based
Quick list: IC50 per entry.
Write the value in µM as a bare number.

Consider the following illustrative entries.
What does the record list as IC50 for O=C(CCCl)N1c2ccccc2Oc2ccc(Cl)cc21 ?
15.7

Can you check O=C(CCCl)N1c2ccccc2Oc2ccccc21 next?
39.1

Can you check Clc1ccc2c(c1)Nc1ccccc1O2 next?
69.2

Can you check O=C(CCl)N1c2ccccc2COc2ccc(Cl)cc21 next?
7.2

Can you check O=C(CCl)N1c2ccccc2Sc2ccc(Cl)cc21 next?
10.4

***
What does the record list as IC50 for O=C(CCl)N1c2ccccc2CCc2ccccc21 ?
43.3

Can you check O=C(CCl)N1c2ccccc2Oc2ccc(C(F)(F)F)cc21 next?
9.6

Can you check N=C(N)c1ccc(OCCCCCOc2ccc(C(=N)N)cc2)cc1 next?
84

Can you check CCCCCCCCCCCCCCCCOP(=O)([O-])OCC[N+](C)(C)C [MILTEFOSINE] next?
36

Can you check O=C(C(Cl)Cl)N1c2ccccc2Oc2ccccc21 next?
82

Can you check O=C(C(Cl)CCl)N1c2ccccc2Oc2ccccc21 (stereo unspecified) next?
9.6

---

# Tested on: Leishmania major
# PROTOCOL_TEXT: Antileishmanial activity against promastigote stage of Leishmania major assessed as inhibition of parasite proliferation after 48 hrs by Alamar Blue assay
# Format: functional, organism-based
pIC50: −log10 of the molar value.
Quick list: pIC50 per entry.

Consider the following illustrative entries.
What does the record list as pIC50 for CC(Cl)C(=O)N1c2ccccc2Oc2ccccc21 (stereo not drawn) ?
< 4.00

Can you check N#CCC(=O)N1c2ccccc2Oc2ccccc21 next?
< 4.00

Switching to the query record.
What does the record list as pIC50 for ClCCN1c2ccccc2Oc2ccc(Cl)cc21 ?
< 4.00
